- tested-target: T1, recombinant human full-length TDP-43 (human, UniProt Q13148 1-414)
- T1 construct: Recombinant full-length protein; also called FL TDP-43; recFL TDP-43
- T1 sequence (Q13148 whole entry): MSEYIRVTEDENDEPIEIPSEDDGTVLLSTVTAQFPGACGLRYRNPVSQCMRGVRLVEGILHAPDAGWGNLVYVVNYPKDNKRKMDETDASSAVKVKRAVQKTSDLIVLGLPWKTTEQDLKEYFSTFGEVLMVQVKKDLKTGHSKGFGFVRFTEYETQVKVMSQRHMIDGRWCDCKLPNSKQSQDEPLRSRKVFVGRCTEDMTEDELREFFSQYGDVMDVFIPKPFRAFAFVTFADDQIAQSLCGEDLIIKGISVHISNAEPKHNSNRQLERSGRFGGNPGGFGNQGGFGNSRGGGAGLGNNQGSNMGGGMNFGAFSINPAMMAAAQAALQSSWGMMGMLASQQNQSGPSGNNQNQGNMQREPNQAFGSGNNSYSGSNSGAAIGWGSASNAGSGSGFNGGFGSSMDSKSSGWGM
- procedure-text: SPR avidity (Biacore T200), TDP-43 monomer immobilised, antibody as analyte, 1:1 model
readout-type: pKd
In plain terms, pKd is the concentration in mol/L turned into minus its base-10 logarithm.

1) ACI-7062-406E3-Ab2 (antibody, IgG2a, V domains shown, also called 406E3G10; clone 6) VH: QVTLKESGPAILQPSQTLSLTCSFSGFSLTTYGIGVGWIRQPSGKGLEWLAHIWWNDNKYYNTALKSRLTVSKDTSNNQVFLKIASVDTADTATYYCARVYGNLYYFAYWGQGTTLTVSS VL: DVLMTQTPLSLPVSLGDRASISCRSSQSIVHRSGNTYLEWYLQKPGQSPKLLIYKVSNRFSGVPDRFSGSGSGTDFTLKISRVEAEDLGVYYCFQGSHVPTFGAGTKLELKR : 9.52
2) ACI-7062-406E3-Ab1 (antibody, IgG2a, V domains shown, also called 406E3D5; clone 5) VH: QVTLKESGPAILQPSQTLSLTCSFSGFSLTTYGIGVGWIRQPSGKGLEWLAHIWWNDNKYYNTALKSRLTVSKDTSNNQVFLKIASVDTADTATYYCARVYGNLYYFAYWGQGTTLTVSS VL: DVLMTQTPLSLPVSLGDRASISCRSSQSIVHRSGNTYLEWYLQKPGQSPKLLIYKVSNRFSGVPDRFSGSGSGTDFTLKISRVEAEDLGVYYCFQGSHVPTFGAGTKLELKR : 9.10

Below: the item to evaluate.
[ask] // lookup pKd for ACI-7062-410H3-Ab1 (antibody, IgG1, V domains shown, also called 410H3B9; clone 7) VH: DVQLVESGGGLVQPGGSRRLSCAASGFTFSSFGMHWVRQAPEKGLEWVAYIRSGSDIIYYADSVKGRFTISRDNPENTLFLQMTSLRSEDTAMYYCARSGTTVPFDYWGQGTSLTVSS VL: DIVMTQSPSSLAMSVGQKVTMSCKSSQSLLNSGNQKNYLAWYQQKPGQSPELLLYFASTRASGVPDRFIGSGSGTDFTLTISSVQAEDLADYFCQQHYSIPLTFGAGTKLELKR
[reply] 8.22

Values compiled from patent US20220025023A1.
